Documented log10 IC50 across a set of compounds
Target: α5β1 integrin (Homo sapiens, UniProt P05556+P08648)
Sequence (P08648 42-995 limits assumed): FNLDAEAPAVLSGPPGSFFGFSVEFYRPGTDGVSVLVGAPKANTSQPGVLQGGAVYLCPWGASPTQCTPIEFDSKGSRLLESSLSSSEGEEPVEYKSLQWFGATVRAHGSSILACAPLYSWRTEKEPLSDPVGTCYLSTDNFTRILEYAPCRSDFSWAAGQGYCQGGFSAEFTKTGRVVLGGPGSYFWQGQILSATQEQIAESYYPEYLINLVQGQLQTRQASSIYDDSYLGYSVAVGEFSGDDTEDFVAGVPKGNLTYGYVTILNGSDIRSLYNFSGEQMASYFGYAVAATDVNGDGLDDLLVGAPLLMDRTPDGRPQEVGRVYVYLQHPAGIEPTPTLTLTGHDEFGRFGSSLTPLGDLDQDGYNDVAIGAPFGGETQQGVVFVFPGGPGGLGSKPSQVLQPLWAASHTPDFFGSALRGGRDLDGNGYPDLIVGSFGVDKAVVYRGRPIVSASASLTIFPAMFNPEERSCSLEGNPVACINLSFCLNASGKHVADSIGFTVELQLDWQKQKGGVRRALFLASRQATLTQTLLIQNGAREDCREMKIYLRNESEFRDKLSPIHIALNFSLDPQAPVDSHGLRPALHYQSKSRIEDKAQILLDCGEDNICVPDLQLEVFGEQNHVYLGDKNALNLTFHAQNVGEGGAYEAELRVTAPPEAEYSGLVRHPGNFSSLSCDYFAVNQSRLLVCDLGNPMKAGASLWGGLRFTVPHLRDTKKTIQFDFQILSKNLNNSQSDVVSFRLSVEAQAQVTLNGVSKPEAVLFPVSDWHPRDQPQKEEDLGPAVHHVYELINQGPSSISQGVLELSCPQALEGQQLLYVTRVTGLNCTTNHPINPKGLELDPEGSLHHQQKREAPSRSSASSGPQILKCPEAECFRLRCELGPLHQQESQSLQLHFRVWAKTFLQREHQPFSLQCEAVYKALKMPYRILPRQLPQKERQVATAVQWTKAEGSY
Sequence (P05556 21-728 limits assumed): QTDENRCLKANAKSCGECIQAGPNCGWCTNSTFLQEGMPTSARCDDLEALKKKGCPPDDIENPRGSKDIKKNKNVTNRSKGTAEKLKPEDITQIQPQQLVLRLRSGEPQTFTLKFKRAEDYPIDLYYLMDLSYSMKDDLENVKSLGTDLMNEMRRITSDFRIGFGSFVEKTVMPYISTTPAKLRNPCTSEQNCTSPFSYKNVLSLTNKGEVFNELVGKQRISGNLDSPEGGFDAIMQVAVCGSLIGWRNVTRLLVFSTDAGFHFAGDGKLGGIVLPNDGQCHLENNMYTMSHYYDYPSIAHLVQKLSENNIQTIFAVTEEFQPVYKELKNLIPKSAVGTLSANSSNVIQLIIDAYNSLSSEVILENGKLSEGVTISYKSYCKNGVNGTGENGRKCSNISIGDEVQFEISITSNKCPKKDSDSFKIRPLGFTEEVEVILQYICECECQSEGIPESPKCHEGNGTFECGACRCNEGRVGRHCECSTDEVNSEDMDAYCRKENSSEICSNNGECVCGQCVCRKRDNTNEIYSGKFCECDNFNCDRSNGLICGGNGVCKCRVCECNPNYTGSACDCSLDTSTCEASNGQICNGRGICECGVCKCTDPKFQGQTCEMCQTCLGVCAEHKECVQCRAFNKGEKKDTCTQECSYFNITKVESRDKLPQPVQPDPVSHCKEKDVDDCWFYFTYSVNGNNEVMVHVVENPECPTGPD
Assay: ELISA-like solid-phase binding assay, soluble integrin α5β1 vs coated fibronectin
Set-up: purchased R&D
Conditions: coated fibronectin, soluble integrin; referenced to internal standard; read-out: IC50 α5β1
Positions of bridges follow the written chain, without caps; N, C: chain ends. Non-standard residues stand in square brackets, D forms with d. Residues, ends and D or L forms follow the SMILES beside them. dPhg = N[C@@H](C(=O)O)c1ccccc1
All values: base-10 log of IC50 in nM.

COMPOUND: N=C(N)NCCC[C@@H]1NC(=O)[C@H](CCCCN)NC(=O)[C@@H](Cc2ccccc2)NC(=O)[C@H](CC(=O)O)NC(=O)CNC1=O [c(RGDfK)]
log10 IC50: 2.15
--
COMPOUND: C[C@@H](O)[C@H](NC(=O)[C@H](CC(=O)O)NC(=O)CNC(=O)[C@H](CCCNC(=N)N)NC(=O)CN)C(=O)N1CCC[C@H]1C(=O)O [GRGDTP] (H-GRGDTP-OH)
log10 IC50: 1.92
--
COMPOUND: N=C(N)NCCC[C@H](NC(=O)CN)C(=O)NCC(=O)N[C@@H](CC(=O)O)C(=O)N[C@@H](CO)C(=O)O
log10 IC50: 1.89
--
COMPOUND: Cc1ccnc(NCCCC(=O)NCC(=O)NC(CC(=O)O)c2ccc(-c3cccc4ccccc34)cc2)c1 (centres unmarked)
log10 IC50: 3.48
--
COMPOUND: N=C(N)NCCC[C@@H]1NC(=O)CNC(=O)C[C@@H](C(=O)O)NC(=O)[C@@H](c2ccccc2)NC(=O)[C@@H](CCCCN)NC1=O [c(phgisoDGRk)] (GR[dK][dPhg]D-OH; lactam N-5)
log10 IC50: 0.97
--
COMPOUND: NC(N)=NCCC[C@H](N)C(=O)NCC(=O)N[C@@H](CC(=O)O)C(=O)N[C@@H](CO)C(=O)O
log10 IC50: 2.26
--
COMPOUND: CC(=O)N1CCC[C@H]1C(=O)N[C@@H](Cc1c[nH]cn1)C(=O)N[C@@H](CO)C(=O)N[C@@H](CS)C(=O)N[C@@H](CC(N)=O)C(N)=O [ATN161, Ac-PHSCN-NH2] (Ac-PHSCN-NH2)
log10 IC50: 0.62
--
COMPOUND: C[C@H](N)C(=O)N[C@H]1CSSC[C@@H](C(=O)NCC(=O)O)NC(=O)[C@H](Cc2ccccc2)NC(=O)[C@@H]2CSSC[C@H](NC(=O)[C@H](CC(=O)O)NC1=O)C(=O)N[C@@H](CCCNC(=N)N)C(=O)NCC(=O)N[C@@H](CC(=O)O)C(=O)N2 [RGD-4C] (H-ACDCRGDCFCG-OH; disulfide 2-10, 4-8)
log10 IC50: 2.39

q: Any idea what its log10 IC50 is? The compound is N=C(N)NCCC[C@@H]1NC(=O)[C@H](CCCCN)NC(=O)[C@@H](Cc2ccc(O)cc2)NC(=O)[C@H](CC(=O)O)NC(=O)CNC1=O [c(RGDyK)]
a: 2.37

q: Thanks! And N=C(N)NCCC[C@H](NC(=O)CN)C(=O)NCC(=O)N[C@@H](CC(=O)O)C(=O)O [GRGD] (H-GRGD-OH) ?
a: 2.14

* * *

Biological target: human αvβ5-integrin (Homo sapiens, UniProt P06756+P18084)
Sequence (P06756 31-1048): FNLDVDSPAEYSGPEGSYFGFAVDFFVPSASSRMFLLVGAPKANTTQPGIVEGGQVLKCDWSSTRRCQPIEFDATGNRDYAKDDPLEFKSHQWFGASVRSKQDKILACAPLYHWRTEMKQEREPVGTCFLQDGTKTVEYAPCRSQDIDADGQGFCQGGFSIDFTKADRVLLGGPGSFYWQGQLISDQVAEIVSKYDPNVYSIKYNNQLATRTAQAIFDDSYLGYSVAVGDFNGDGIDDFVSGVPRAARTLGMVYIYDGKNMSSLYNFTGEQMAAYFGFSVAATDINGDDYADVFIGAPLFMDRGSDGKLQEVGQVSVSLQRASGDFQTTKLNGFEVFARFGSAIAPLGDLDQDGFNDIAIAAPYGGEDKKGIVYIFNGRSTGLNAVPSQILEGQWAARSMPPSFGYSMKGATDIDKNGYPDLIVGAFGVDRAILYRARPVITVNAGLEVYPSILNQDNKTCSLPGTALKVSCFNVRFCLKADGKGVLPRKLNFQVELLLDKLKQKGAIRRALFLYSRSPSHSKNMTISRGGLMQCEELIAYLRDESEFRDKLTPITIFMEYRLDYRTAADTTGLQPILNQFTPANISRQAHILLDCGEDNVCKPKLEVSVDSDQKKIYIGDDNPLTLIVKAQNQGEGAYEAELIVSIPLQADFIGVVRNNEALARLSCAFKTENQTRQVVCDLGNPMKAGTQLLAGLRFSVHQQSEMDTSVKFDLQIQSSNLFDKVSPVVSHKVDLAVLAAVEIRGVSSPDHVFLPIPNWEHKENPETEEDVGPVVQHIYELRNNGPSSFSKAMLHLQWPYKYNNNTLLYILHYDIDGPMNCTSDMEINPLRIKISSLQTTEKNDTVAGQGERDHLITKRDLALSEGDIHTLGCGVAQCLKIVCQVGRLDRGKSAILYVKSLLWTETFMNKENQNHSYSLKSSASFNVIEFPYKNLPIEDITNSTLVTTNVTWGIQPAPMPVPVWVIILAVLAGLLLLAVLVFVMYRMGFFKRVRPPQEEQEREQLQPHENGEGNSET
Sequence (P18084 24-799): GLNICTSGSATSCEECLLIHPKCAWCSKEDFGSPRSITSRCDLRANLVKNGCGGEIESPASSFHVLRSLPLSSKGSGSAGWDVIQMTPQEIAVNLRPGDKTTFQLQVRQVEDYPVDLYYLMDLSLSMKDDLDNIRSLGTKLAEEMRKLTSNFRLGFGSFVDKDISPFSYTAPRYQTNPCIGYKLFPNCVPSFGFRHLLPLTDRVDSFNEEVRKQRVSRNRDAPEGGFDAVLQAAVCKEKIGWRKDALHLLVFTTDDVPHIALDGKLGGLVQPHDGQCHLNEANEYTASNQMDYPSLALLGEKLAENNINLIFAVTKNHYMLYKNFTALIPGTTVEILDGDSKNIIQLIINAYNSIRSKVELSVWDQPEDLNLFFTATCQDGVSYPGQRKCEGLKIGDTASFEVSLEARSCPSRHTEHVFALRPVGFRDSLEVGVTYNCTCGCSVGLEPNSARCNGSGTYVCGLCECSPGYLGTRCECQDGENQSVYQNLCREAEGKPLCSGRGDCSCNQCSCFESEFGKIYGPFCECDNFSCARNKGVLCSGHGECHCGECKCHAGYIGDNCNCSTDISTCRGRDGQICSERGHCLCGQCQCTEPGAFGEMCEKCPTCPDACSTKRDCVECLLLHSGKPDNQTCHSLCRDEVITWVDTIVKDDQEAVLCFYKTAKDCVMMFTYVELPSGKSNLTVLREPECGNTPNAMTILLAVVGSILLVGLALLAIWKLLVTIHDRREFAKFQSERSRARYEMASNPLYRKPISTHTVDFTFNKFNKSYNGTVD
Test: ELISA-like solid-phase binding assay, soluble integrin αvβ5 vs coated vitronectin
Settings: referenced to internal standard
Positions of bridges follow the written chain, without caps; N, C: chain ends. Residues, ends and D or L forms follow the SMILES beside them. *: point of attachment. X2 = NC(=O)COCC(=O)NCCOCCOCCOCCN*
QUANTITY: pIC50
pIC50 is defined as minus the log10 of a concentration measured in mol/L.

Would you please look over these solved cases?
COMPOUND: Cc1ccnc(NCCCC(=O)NCC(=O)NC(CC(=O)O)c2ccc(-c3cccc4ccccc34)cc2)c1 (stereo not drawn)
SYSTEM_NAME: human αvβ5-integrin (Homo sapiens, UniProt P06756+P18084)
pIC50: 6.28
--
COMPOUND: NC(N)=NCCC[C@H](N)C(=O)NCC(=O)N[C@@H](CC(=O)O)C(=O)N[C@@H](CO)C(=O)O
SYSTEM_NAME: human αvβ5-integrin (Homo sapiens, UniProt P06756+P18084)
pIC50: 6.36
--
COMPOUND: N=C(N)NCCC[C@H](NC(=O)CN)C(=O)NCC(=O)N[C@@H](CC(=O)O)C(=O)N[C@@H](CC(N)=O)C(=O)N1CCC[C@H]1C(=O)O [GRGDNP] (H-GRGDNP-OH)
SYSTEM_NAME: human αvβ5-integrin (Homo sapiens, UniProt P06756+P18084)
pIC50: 6.30
--
COMPOUND: C[C@@H](O)[C@H](NC(=O)[C@H](CC(=O)O)NC(=O)CNC(=O)[C@H](CCCNC(=N)N)NC(=O)CN)C(=O)N1CCC[C@H]1C(=O)O [GRGDTP] (H-GRGDTP-OH)
SYSTEM_NAME: human αvβ5-integrin (Homo sapiens, UniProt P06756+P18084)
pIC50: 6.37

q: Any idea what its pIC50 is? The compound is N=C(N)NCCC[C@@H]1NC(=O)[C@H](CCCCN)NC(=O)[C@@H](Cc2ccccc2)NC(=O)[C@H](CC(=O)O)NC(=O)CNC1=O [c(RGDfK)]
a: 6.47

q: Thanks! And N=C(N)NCCC[C@H](NC(=O)CN)C(=O)NCC(=O)N[C@@H](CC(=O)O)C(=O)O [GRGD] (H-GRGD-OH) ?
a: 6.24

q: Thanks! And N=C(N)NCCC[C@@H]1NC(=O)[C@@H]2CSSC[C@H](NC(=O)[C@H](CC(=O)O)NC(=O)CNC1=O)C(=O)N[C@@H](Cc1ccccc1)C(=O)N[C@H](C(=O)NCCOCCOCCOCCNC(=O)COCC(N)=O)CSCC(=O)N[C@@H](CCCCN)C(=O)N2 [NC100717] ({CH2CO}-KCRGDCFC-X2; disulfide 2-6; thioether N-8; N-terminus and C-terminus assumed) ?
a: 7.78

* * *

Molecular target: human αvβ6-Integrin (Homo sapiens, UniProt P06756+P18564)
Sequence (P18564 22-707 limits assumed, one chain of several): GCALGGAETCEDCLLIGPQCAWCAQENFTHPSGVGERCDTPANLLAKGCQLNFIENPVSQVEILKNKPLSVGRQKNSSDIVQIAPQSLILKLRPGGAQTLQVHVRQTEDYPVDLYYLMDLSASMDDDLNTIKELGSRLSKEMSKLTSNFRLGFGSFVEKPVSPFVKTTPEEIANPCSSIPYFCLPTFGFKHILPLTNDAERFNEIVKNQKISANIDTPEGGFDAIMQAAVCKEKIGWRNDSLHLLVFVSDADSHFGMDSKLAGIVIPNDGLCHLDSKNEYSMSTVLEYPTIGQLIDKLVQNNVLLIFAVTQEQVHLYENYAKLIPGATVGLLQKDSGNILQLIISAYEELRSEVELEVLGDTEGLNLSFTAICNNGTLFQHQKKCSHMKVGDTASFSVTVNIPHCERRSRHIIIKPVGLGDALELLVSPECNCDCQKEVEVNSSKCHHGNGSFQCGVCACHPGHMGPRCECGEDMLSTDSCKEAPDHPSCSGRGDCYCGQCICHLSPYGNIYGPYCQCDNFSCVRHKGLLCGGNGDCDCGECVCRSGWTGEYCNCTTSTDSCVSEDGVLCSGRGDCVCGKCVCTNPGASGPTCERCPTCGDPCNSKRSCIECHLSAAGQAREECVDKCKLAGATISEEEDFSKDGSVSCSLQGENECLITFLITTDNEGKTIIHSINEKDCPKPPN
Assay: ELISA-like solid-phase binding assay, soluble integrin αvβ6 vs coated LAP (TGF-β)
Conditions: coated LAP, soluble integrin; referenced to internal standard
Positions of bridges follow the written chain, without caps; N, C: chain ends. Residues, ends and D or L forms follow the SMILES beside them.
QUANTITY: IC50

Would you please look over these solved cases?
COMPOUND: CCCCS(=O)(=O)N[C@@H](Cc1ccc(OCCCCC2CCNCC2)cc1)C(=O)O [Tirofiban]
IC50: > 10000 nM
--
COMPOUND: C[C@H](N)C(=O)N[C@H]1CSSC[C@@H](C(=O)NCC(=O)O)NC(=O)[C@H](Cc2ccccc2)NC(=O)[C@@H]2CSSC[C@H](NC(=O)[C@H](CC(=O)O)NC1=O)C(=O)N[C@@H](CCCNC(=N)N)C(=O)NCC(=O)N[C@@H](CC(=O)O)C(=O)N2 [RGD-4C] (H-ACDCRGDCFCG-OH; disulfide 2-10, 4-8)
IC50: 380 nM
--
COMPOUND: CC(=O)N1CCC[C@H]1C(=O)N[C@@H](Cc1c[nH]cn1)C(=O)N[C@@H](CO)C(=O)N[C@@H](CS)C(=O)N[C@@H](CC(N)=O)C(N)=O [ATN161, Ac-PHSCN-NH2] (Ac-PHSCN-NH2)
IC50: 3130 nM
--
COMPOUND: NCCCC[C@H](NC(=O)[C@@H]1CCCN1C(=O)[C@H](CO)NC(=O)[C@H](CC(=O)O)NC(=O)CNC(=O)[C@H](CCCN=C(N)N)NC(=O)CN)C(=O)O [GRGDSPK]
IC50: 1030 nM

As a next step, examine the compound that follows.
q: Which measured IC50 belongs to N=C(N)NCCC[C@H](N)C(=O)NCC(=O)N[C@@H](CC(=O)O)C(=O)O [RGD] , tested on human αvβ6-Integrin (Homo sapiens, UniProt P06756+P18564)?
a: > 10000 nM

* * *

Target: α5β1 integrin (Homo sapiens, UniProt P05556+P08648)
Test: ELISA-like solid-phase binding assay, soluble integrin α5β1 vs coated fibronectin
Design: purchased R&D
Details: coated fibronectin, soluble integrin; referenced to internal standard; read-out: IC50 α5β1
Non-standard residues stand in square brackets, D forms with d. Residues, ends and D or L forms follow the SMILES beside them.
QUANTITY: pIC50
pIC50 is defined as minus the log10 of a concentration measured in mol/L.

q: Any idea what its pIC50 is? The molecule is N=C(N)NCCC[C@@H]1NC(=O)[C@H](CS)NC(=O)[C@@H](Cc2ccccc2)NC(=O)[C@H](CC(=O)O)NC(=O)CNC1=O [c(RGDfC)] (cyclo(RGD[dF]C))
a: 6.67

Source listed as paper PMC5225454.
